test: Solubility of terbinafine hydrochloride; format: physicochemical; details: organic solvent or mixture, thermodynamic from solid; solvent Ethanol
Structures can show the parent of a compound that is named as a salt.
Property Label: solubility at 24 h (mg/mL)
Give the value in mg/mL but do not write mg/mL after it.

Ask | Requested read-out: solubility at 24 h. Entry: CN(C/C=C/C#CC(C)(C)C)Cc1cccc2ccccc12 [Terbinafine, terbinafine hydrochloride]
Reply | 172

* * *

assay: Solubility of terbinafine hydrochloride; type: physicochemical; settings: 50 mM ammonium acetate buffer pH 10.0, aqueous buffer, thermodynamic from solid; solvent pH 10.0 buffer
Where a name gives a salt, the structure may show the parent alone.
Property Label: solubility at 24 h (µg/mL)
Give the value in µg/mL but do not write µg/mL after it.

Ask | Requested read-out: solubility at 24 h. Entry: CN(C/C=C/C#CC(C)(C)C)Cc1cccc2ccccc12 [Terbinafine, terbinafine hydrochloride]
Reply | 1500

* * *

test: Solubility of terbinafine hydrochloride; assay type: physicochemical; conditions: thermodynamic from solid; solvent Water; room temperature
Where a name gives a salt, the structure may show the parent alone.
Property Label: solubility at 24 h (µg/mL)
Give the value in µg/mL but do not write µg/mL after it.

Ask | Requested read-out: solubility at 24 h. Entry: CN(C/C=C/C#CC(C)(C)C)Cc1cccc2ccccc12 [Terbinafine, terbinafine hydrochloride]
Reply | 5900

* * *

experiment: Solubility of terbinafine hydrochloride; assay type: physicochemical; settings: aqueous with cosolvent or surfactant or cyclodextrin, thermodynamic from solid; solvent 10% Ethanol
Structures can show the parent of a compound that is named as a salt.
Property Label: solubility at 24 h (µg/mL)
Give the value in µg/mL but do not write µg/mL after it.

Ask | Requested read-out: solubility at 24 h. Entry: CN(C/C=C/C#CC(C)(C)C)Cc1cccc2ccccc12 [Terbinafine, terbinafine hydrochloride]
Reply | 7500

* * *

assay: Solubility of terbinafine hydrochloride; assay type: physicochemical; conditions: aqueous with cosolvent or surfactant or cyclodextrin, thermodynamic from solid; solvent 40% Ethanol
Counter-ions that a name gives are not always drawn.
Property Label: solubility at 24 h (mg/mL)
Give the value in mg/mL but do not write mg/mL after it.

Ask | Requested read-out: solubility at 24 h. Entry: CN(C/C=C/C#CC(C)(C)C)Cc1cccc2ccccc12 [Terbinafine, terbinafine hydrochloride]
Reply | 53

* * *

experiment: Solubility of terbinafine hydrochloride; assay type: physicochemical; conditions: aqueous with cosolvent or surfactant or cyclodextrin, thermodynamic from solid; solvent 20% Ethanol
Structures can show the parent of a compound that is named as a salt.
Property Label: solubility at 24 h (mg/mL)
Give the value in mg/mL but do not write mg/mL after it.

Ask | Requested read-out: solubility at 24 h. Entry: CN(C/C=C/C#CC(C)(C)C)Cc1cccc2ccccc12 [Terbinafine, terbinafine hydrochloride]
Reply | 11

* * *

assay: Solubility of terbinafine hydrochloride; assay type: physicochemical; conditions: 50 mM ammonium phosphate buffer pH 7.0, aqueous buffer, thermodynamic from solid; solvent pH 7.0 buffer
Where a name gives a salt, the structure may show the parent alone.
Property Label: solubility at 24 h (µg/mL)
Give the value in µg/mL but do not write µg/mL after it.

Ask | Requested read-out: solubility at 24 h. Entry: CN(C/C=C/C#CC(C)(C)C)Cc1cccc2ccccc12 [Terbinafine, terbinafine hydrochloride]
Reply | 20

* * *

experiment: Solubility of terbinafine hydrochloride; type: physicochemical; details: aqueous with cosolvent or surfactant or cyclodextrin, thermodynamic from solid; solvent 50% Ethanol
Counter-ions that a name gives are not always drawn.
Property Label: solubility at 24 h (mg/mL)
Give the value in mg/mL but do not write mg/mL after it.

Ask | Requested read-out: solubility at 24 h. Entry: CN(C/C=C/C#CC(C)(C)C)Cc1cccc2ccccc12 [Terbinafine, terbinafine hydrochloride]
Reply | 119

Data origin: patent US9084754B2
